# Test system: Aerobactin synthetase IucA (Klebsiella pneumoniae hvKP1)
# Experimental Details: Biochemical IucA enzyme inhibition primary screen of the Spectrum library (AID 1346200);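 note: 100% = wells without compound and 0% = wells lacking enzyme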
# Condition Info: malachite green pyrophosphate, A620, at 8 µM, active compounds read low

# Compound, activity remaining, %
data = [
    ("Cc1nnc(NS(=O)(=O)c2ccc(N)cc2)s1", 113),
    ("COC1CC2CCC(C)C(O)(O2)C(=O)C(=O)N2CCCCC2C(=O)OC(C(C)CC2CCC(O)C(OC)C2)CC(=O)C(C)/C=C(\\C)C(O)C(OC)C(=O)C(C)CC(C)/C=C/C=C/C=C/1C (configuration not stated)", 107),
    ("O=c1cccc2n1CC1CC2CN2CCCC[C@@H]12 (some centres not stated)", 116),
    ("O=C(c1ccc(F)cc1)C1CCN(CCn2c(=O)[nH]c3ccccc3c2=O)CC1", 120),
    ("CC1(C)C(=O)[C@@H]2O[C@@H]2[C@@]2(C)C1C[C@@H](O)[C@]1(C)C2CC[C@@]2(C)[C@H](c3ccoc3)OC(=O)C3OC321 (some centres not stated)", 96.1),
    ("Nc1nc(N)c2nc(CNc3ccc(C(=O)NC(CCC(=O)O)C(=O)O)cc3)cnc2n1 (configuration not stated)", 102),
    ("CN(C)[C@@H]1C(=O)C(C(N)=O)=C(O)[C@@]2(O)C(=O)C3=C(O)c4c(O)cccc4[C@@](C)(O)[C@H]3C[C@@H]12", 92.7),
    ("CCC(C)[C@H]1O[C@]2(C=C[C@@H]1C)C[C@@H]1C[C@@H](C/C=C(\\C)[C@@H](OC3C[C@H](OC)C(O[C@H]4C[C@H](OC)[C@@H](O)[C@H](C)O4)[C@H](C)O3)[C@@H](C)/C=C/C=C3\\CO[C@@H]4[C@H](O)C(C)=C[C@@H](C(=O)O1)[C@]34O)O2 (some centres not stated)", 106),
    ("NNCCc1ccccc1", 112),
    ("COC(=O)[C@@H]1OC(=O)C2OC23[C@@]1(C)CCC1[C@@]2(C)CCC(=O)C(C)(C)C2C[C@@H](OC(C)=O)[C@]13C (some centres not stated)", 112),
    ("CC1(C)C(=O)C=C[C@@]2(C)C1C[C@@H](O)[C@]1(C)C2CC[C@@]2(C)[C@H](c3ccoc3)OC(=O)[C@H]3O[C@]321 (some centres not stated)", 88.4),
    ("COc1cc([C@@H]2c3cc4c(c(O)c3C[C@H]3COC(=O)[C@@H]32)OCO4)cc(OC)c1OC", 116),
    ("CC[C@@]1(O)C(=O)OCc2c1cc1n(c2=O)Cc2cc3ccccc3nc2-1", 107),
    ("CN1C2CCC1CC(OC(=O)C(CO)c1ccccc1)C2 (configuration not stated)", 108),
    ("O=c1cc(-c2ccccc2O)oc2cc(O)ccc12", 100),
    ("N#CC(O[C@@H]1O[C@H](CO[C@@H]2O[C@H](CO)[C@@H](O)[C@H](O)[C@H]2O)[C@@H](O)[C@H](O)[C@H]1O)c1ccccc1 (some centres not stated)", 123),
    ("O=C1CC2(CCCC2)CC(=O)N1CCCCN1CCN(c2ncccn2)CC1", 118),
    ("NCC(=O)CCC(=O)O", 77.6),
    ("NC(=O)c1ccc(N)nc1", 120),
    ("CC(=O)O[C@@H]1CC2C(C)(C)C(=O)C=C[C@]2(C)C2CC[C@]3(C)C(=CC(=O)O[C@H]3c3ccoc3)[C@@]21C (some centres not stated)", 123),
    ("CCCC(C)(COC(N)=O)COC(=O)NC(C)C (configuration not stated)", 115),
    ("COc1ccc(CN(CCN(C)C)c2ncccn2)cc1", 120),
    ("CNCCC=C1c2ccccc2CCc2ccccc21", 122),
    ("CCC1OC(=O)[C@H](C)C(=O)[C@H](C)[C@@H](OC2O[C@H](C)C[C@H](N(C)C)[C@H]2O)[C@](C)(OC)C[C@@H](C)C(=O)[C@H](C)[C@H]2N(CCCCn3cnc(-c4cccnc4)c3)C(=O)OC12C (some centres not stated)", 121),
    ("OC(Cn1cncn1)(Cn1cncn1)c1ccc(F)cc1F", 105),
    ("C=C(C)[C@@H]1CC[C@]2(CO)CC[C@]3(C)[C@H](CCC4[C@@]5(C)CC[C@H](O)C(C)(C)C5CC[C@]43C)C12 (some centres not stated)", 93.4),
    ("O=c1[nH]c(=O)n(C2C[C@H](O)[C@@H](CO)O2)cc1C(F)(F)F (some centres not stated)", 108),
    ("OC[C@@H]1CCCN2CCCC[C@H]12", 109),
    ("Cc1noc(NS(=O)(=O)c2ccc(N)cc2)c1C", 117),
    ("COC(=O)C1=C(C)NC(C)=C(C(=O)OCC(C)C)C1c1ccccc1[N+](=O)[O-] (configuration not stated)", 118),
    ("CCCCCCCCCc1ccc(OCCOCCOCCOCCOCCOCCOCCOCCOCCO)cc1", 109),
    ("CN1CCN2c3ccccc3Cc3ccccc3C2C1 (configuration not stated)", 119),
    ("CCN(CC)CCOC(=O)c1ccc(N)cc1", 105),
    ("COc1ccc(-c2oc3c(CC=C(C)C)c(O[C@@H]4O[C@H](CO)[C@@H](O)[C@H](O)[C@H]4O)cc(O)c3c(=O)c2O[C@@H]2O[C@@H](C)[C@H](O)[C@@H](O)[C@H]2O)cc1", 121),
    ("Cc1ncc(CO)c(CO)c1O", 102),
    ("CN(C)[C@@H]1C(=O)C(C(N)=O)=C(O)[C@@]2(O)C(=O)C3=C(O)c4c(O)ccc(Cl)c4[C@@](C)(O)[C@H]3C[C@@H]12", 117),
    ("CC(C)CC(N(C)C)C1(c2ccc(Cl)cc2)CCC1 (configuration not stated)", 121),
]

###

# Experimental Details: CellTiter-Glo luminescent readout of SW480 viability loss, NPC library primary (AID 1117343)
# Condition Info: CellTiter-Glo luminescence; at 20 µM (top of the series)
Active and inactive are the calls of the source.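 How the source made its calls: active means compounds that lower viability of the colon cancer cells in the luminescence readout, with no numeric limit stated; inactive means the rest.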

# Compound, viability decrease (inhibition)
measured = [
    ("COP(=S)(OC)SCN1C(=O)c2ccccc2C1=O", "6.9% (inactive)"),
    ("CCCCCCCCCCCCNCCNCCNCC(=O)O", "100% (active)"),
    ("COc1cccc([C@@]2(O)CCCC[C@@H]2CN(C)C)c1", "75.1% (active)"),
    ("C1CN(P2(N3CC3)=NP(N3CC3)(N3CC3)=NP(N3CC3)(N3CC3)=N2)CCO1 (centres undefined)", "17.7% (active)"),
    ("CN1C[C@@H](NS(=O)(=O)N(C)C)C[C@@H]2c3cccc4c3c(cn4C)C[C@H]21", "48% (inactive)"),
    ("CC(=O)OCC1=C(C(=O)O)N2C(=O)[C@@H](N)[C@H]2SC1", "82.6% (active)"),
    ("C[C@]12CC[C@H](O)CC1=CC[C@@H]1[C@@H]2CC[C@]2(C)C(=O)CC[C@@H]12", "113% (active)"),
    ("CN(C)[C@@H]1C(=O)C(C(N)=O)=C(O)[C@@]2(O)C(=O)C3=C(O)c4c(O)cccc4[C@@](C)(O)[C@H]3[C@H](O)[C@@H]12", "62.8% (active)"),
    ("O=C(CCCN1CCC2(CC1)C(=O)NCN2c1ccccc1)c1ccc(F)cc1", "95.2% (active)"),
    ("Clc1ccc(C(c2ccc(Cl)cc2)C(Cl)(Cl)Cl)cc1", "124% (active)"),
    ("O=C1c2ccccc2C(=O)c2ccccc21", "31.6% (inactive)"),
    ("CC(C)(C)CC(C)(C)c1ccc(O)cc1", "142% (active)"),
    ("CC1=C(C(=O)O)N2C(=O)[C@@H](N)[C@H]2SC1", "33.8% (inactive)"),
    ("Nc1ccccc1C(=O)OCC(O)CO (centres undefined)", "-4.5% (inactive)"),
    ("c1ccc2nc(N3CCNCC3)ccc2c1", "54.9% (active)"),
    ("CN1CCC(N(Cc2ccccc2)c2ccccc2)CC1", "48.7% (inactive)"),
    ("CN1CCc2cc(Cl)c(O)cc2[C@H]2c3ccccc3CC[C@@H]21", "46.5% (inactive)"),
    ("Cc1ccc(N=CN(C)C=Nc2ccc(C)cc2C)c(C)c1", "-61.8% (inactive)"),
    ("C[C@H]1CNCCc2ccc(Cl)cc21", "45.3% (inactive)"),
    ("COC(=O)C1=CCCN(C)C1", "8.4% (inactive)"),
    ("CCS(=O)(=O)C(C)(C)S(=O)(=O)CC", "-3.1% (inactive)"),
    ("CC(C)(C)c1ccc(O)cc1", "15.7% (inactive)"),
    ("COc1ccc2c(c1OC)C(=O)O[C@H]2[C@@H]1c2cc3c(cc2CCN1C)OCO3", "3.5% (inactive)"),
    ("C[C@]12CCC(=O)C=C1C=C[C@@H]1[C@H]2CC[C@@]2(C)[C@@H]1CC[C@@]2(O)CCC(=O)O", "-2% (inactive)"),
]
